# Assay Method Text: in vivo
# Test Parameters: male, C57BL/6J, mouse, oral bioavailability measured in plasma
Quantity Name: bioavailability (%)
Give bare numbers, in %.

input: Consider the molecule shown here: C[C@]12CC[C@H]3[C@@H](CCC4=CC(=O)C=C[C@@]43O)[C@@H]1CC[C@@H]2O [DHED, 10β,17β-dihydroxyestra-1,4-dien-3-one] What is its recorded bioavailability?
output: 10
